- System: HCT-15 colon
- Protocol description: NCI-60 one-dose screen, 48 h (100 = growth as untreated, 0 = no growth, -100 = all killed)
- Setup conditions: 10 µM
About 83,000 compounds went through this panel and 20% of them were active in at least one assay; those are over-represented in the sample as a whole. The source made the active and inactive calls. The calls were made as follows: active = growth percent below 10; inactive = the rest.
// reported growth per item

Some molecules with recorded growth:
>>> assay_result("O=C(c1ccc(O)cc1)C1[C@H](c2ccc(Br)cc2)[C@@H](c2ccccc2)NC12C(=O)Nc1ccccc12 (some centres undefined)")
"24.6% (inactive)"
>>> assay_result("O=C(CNc1nc(-c2ccccc2)cs1)Nc1ccccc1")
"-70.6% (active)"

Exercise: Name the recorded growth for CO[C@@H]1CSSC1Cn1nc(-c2ccc(Oc3ccccc3)cc2)c2c(N)ncnc21 (some centres undefined) .
Solution: 37.2% (inactive)

Exercise: Sample O=c1oc2ccc(-c3ccc(F)cc3F)cc2c(=O)n1-c1ccc(F)c(Cl)c1 — what was its growth?
Solution: -23.6% (active)

Exercise: Quick one: growth for O=C(NO)c1ccc(CNC(=O)[C@H]2Cc3c([nH]c4ccccc34)[C@H](c3ccc(Cl)cc3)N2)cc1 ?
Solution: 30.5% (inactive)

Exercise: May I ask what growth has been recorded for CN1C(=O)/C(=C/c2ccc3ncsc3c2)NC1=NC12CC3CC(CC(O)(C3)C1)C2 ?
Solution: -7.12% (active)

---

- System: OVCAR-3 ovarian
- Protocol description: NCI-60 one-dose screen, 48 h (100 = growth as untreated, 0 = no growth, -100 = all killed)
- Setup conditions: 10 µM
This is part of a sample that, as a whole, favours compounds with a hit. Of some 83,000 tested, about 20% had one in any assay.
Each entry gets class 0 if its growth stays under 50%, and class 1 if its growth is 50% or above.

>>> category_label("CN(C(=O)c1ccc(C(C)(C)C)cc1)c1sc2c(c1C#N)CCC(=O)C2")
"class 0"
>>> category_label("Cc1ccc(C(=O)CSc2nnc(-c3c[nH]c4ccccc34)n2-c2ccccc2)cc1")
"class 1"
>>> category_label("COc1ccc(N(C)c2cc(C#N)nc3ccccc23)cc1/C=C/C(=O)NO")
"class 0"
>>> category_label("CN(C)c1nc(NCCNS(=O)(=O)c2ccc(C(=O)/C=C/c3ccccc3)cc2)nc(Nc2ccc(F)cc2)n1")
"class 0"
>>> category_label("CN1CCN(c2ccc(Nc3nc(NCCCNC(=O)c4ccc(F)cc4)c4sccc4n3)cc2)CC1")
"class 1"
>>> category_label("Cc1cc(C)nc(SCC(=O)Nc2ccc(S(N)(=O)=O)cc2)n1")
"class 1"

Exercise: Determine whether this compound has growth no lower than 50%: O=C1Nc2ccc(F)cc2/C1=C/c1cccc(OCc2ccccc2)c1
Solution: class 0

Exercise: Check if growth >= 50% (inclusive). Item: C=C(C)[C@@H]1CC[C@]2(C(=O)OC)CC[C@]3(C)[C@H](CC[C@@H]4[C@@]5(C)CC[C@H](N)C(C)(C)[C@@H]5CC[C@]43C)[C@@H]12
Solution: class 0

---

- Test system: HOP-62 NSCLC
- Protocol description: NCI-60 one-dose screen, 48 h (100 = growth as untreated, 0 = no growth, -100 = all killed)
- Setup conditions: 10 µM
The panel holds about 83,000 compounds, 20% with a hit somewhere; the sample as a whole holds those more often.
Measure: growth (%)
Please state the figure in %; there is no need to write the unit.

Record excerpt, results attached:
>>> assay_result("COc1ccc(-c2nc(-c3ccccc3)c(-c3ccccc3)n2-c2ccc(S(=O)(=O)Nc3ncccn3)cc2)cc1OC")
76.9
>>> assay_result("O=C(CNc1nc(-c2ccccc2)cs1)Nc1ccc(Cl)cc1")
-76.1
>>> assay_result("COc1ccc(/C=C/C(=O)c2ccc(N3CCN(C)CC3)cc2)c(C(F)(F)F)c1")
79.6
>>> assay_result("COc1ccccc1[C@H]1C(C(=O)c2ccc(O)cc2)C2(N[C@@H]1c1ccccc1)C(=O)Nc1ccc(Br)cc12 (stereo not given in full)")
51.3
>>> assay_result("O=[N+]([O-])c1ccc(-c2nc(-c3ccccc3)c(-c3ccccc3)n2-c2ccc(S(=O)(=O)Nc3ncccn3)cc2)cc1")
61.9
>>> assay_result("O=c1c2ccccc2nc(COc2ccccc2)n1/N=C/c1ccc(N2CCOCC2)cc1")
18.4
>>> assay_result("O/N=C(\\CSc1nnc(-c2c[nH]c3ccccc23)n1-c1ccccc1)c1ccc(Br)cc1")
-54.8
>>> assay_result("COc1ccc(-c2cc(C(=O)N=Nc3c(O)[nH]c4ccccc34)c3ccccc3n2)cc1")
-42.7

Exercise: // lookup growth for Cc1ccc(/C(N)=N/c2sc(-c3ccccc3)nc2-c2ccccc2)cc1
Solution: 101

Exercise: Please report the recorded growth for CN(CCF)c1ccc(/C=C/C(=O)c2ccc(N)cc2O)cc1 .
Solution: 106

Exercise: What does the record list as growth for Nc1nnc(-c2c[nH]c3ncccc23)c(-c2c[nH]c3ccc(Br)cc23)n1 ?
Solution: 49.4

Exercise: What does the record list as growth for COc1cc(/C=C/C(=O)c2ccc(NC(=O)CSc3nnc(-c4c[nH]c5ccccc45)n3-c3ccccc3)cc2)cc(OC)c1OC ?
Solution: 101

Exercise: Find the recorded growth belonging to Cc1ccc2nc(-c3ccc(-c4nnc(SCC(=O)Nc5ccc(Br)cc5)o4)cc3)[nH]c2c1 and report it.
Solution: 72.9

---

- Test system: SF-295 CNS
- Protocol description: NCI-60 one-dose screen, 48 h (100 = growth as untreated, 0 = no growth, -100 = all killed)
- Setup conditions: 10 µM
This is part of a sample that, as a whole, favours compounds with a hit. Of some 83,000 tested, about 20% had one in any assay. Calls of active or inactive are those of the source. The calls were made as follows: active = growth percent below 10; inactive = the rest.
Measure: growth

Recorded results for 8 compounds are shown here.
>>> assay_result("COc1cccc(-c2ccc(/C=N/NC(=O)c3[nH]c4ccc(Br)cc4c3-c3ccccc3)o2)c1")
"-14.6% (active)"
>>> assay_result("CN1C(=O)/C(=C/c2nccs2)SC1=S")
"93.2% (inactive)"
>>> assay_result("COc1cc2c3c(n(CCCn4ccnc4)c(=O)c2cc1OC)-c1nc2c(cc1C3=O)OCO2")
"-7.74% (active)"
>>> assay_result("CN(C(=O)c1ccc(C(C)(C)C)cc1)c1sc2c(c1C#N)CCC(=O)C2")
"-0.987% (active)"
>>> assay_result("O=C(NC(=S)N1CCN(c2ncnc3c2cnn3-c2ccccc2)CC1)c1ccc(Cl)cc1")
"34.2% (inactive)"
>>> assay_result("CC(=O)c1ccc(NC(=O)NCn2c(=O)[nH]c3ccccc3c2=O)cc1")
"92.7% (inactive)"
>>> assay_result("CC(=O)NS(=O)(=O)c1ccc(NC(=O)CSC2=NC(c3ccccc3)C(C(C)=O)=C(C)N2)cc1 (centres undefined)")
"101% (inactive)"
>>> assay_result("CCOc1ccc2ncc(C#Cc3cncc(C(=O)Nc4ccc(CN5CCN(C)CC5)c(C(F)(F)F)c4)c3)n2n1")
"-88.5% (active)"

Now look at this entry.
Exercise: Look up growth for this compound: Nc1nnc(-c2c[nH]c3ccc(F)cc23)c(-c2c[nH]c3ncccc23)n1
Solution: 36.6% (inactive)

---

- Test system: OVCAR-3 ovarian
- Protocol description: NCI-60 one-dose screen, 48 h
- Setup conditions: 10 µM
- Experimental: Growth inhibition of the OVCAR-3 human tumor cell line is measured as a screen for anti-cancer activity. Cells are grown in 96 well plates and exposed to the test compound for 48 hours. Compounds are tested at a single concentration, which is 10^-5 M for most compounds. The reported endpoint is percent growth (GI% or GIPRCNT), where numbers from 0 - 100% represent growth inhibition, and numbers from -100% - 0 represent cell death. For example, a value of 40 represents 60% growth inhibition. […]
This is part of a sample that, as a whole, favours compounds with a hit. Of some 83,000 tested, about 20% had one in any assay. Active and inactive are the calls of the source. The calls were made as follows: active = growth percent below 10; inactive = the rest.
# valid calls are active, inactive; nothing else

Observe how each entry below is paired with its result.
>>> category_label("Cc1ccc(CSc2nc(Cl)c(C#N)c(-c3ccc(F)cc3)n2)cc1")
"inactive"
>>> category_label("Cc1ccc(S(=O)(=O)c2nc(-c3ccccc3)oc2S(=O)(=O)CC(=O)N2CCCC2)cc1")
"active"
>>> category_label("COc1ccc(-c2c(N)c(=O)n(C)c3ccccc23)cc1")
"inactive"
>>> category_label("C=C1CCC2C3(C)COC(c4c(F)cccc4F)OC3CCC2(C)C1CC(O)C1=CCOC1=O (centres undefined)")
"inactive"
>>> category_label("O=C(NCCCCC(c1ccc(F)cc1)c1ccc(F)cc1)NCCCc1cccnc1")
"inactive"
>>> category_label("Cc1ccc(/C=C/C(=O)c2ccc(NC(=O)CSc3nnc(-c4c[nH]c5ccccc45)n3-c3ccccc3)cc2)cc1")
"inactive"

Exercise: Per the records of this test, what outcome belongs to N#Cc1c(NC(=O)c2ccc(C(F)(F)F)cc2C(F)(F)F)sc2c1CCC(=O)C2 ?
Solution: active

Exercise: Please share the test call associated with CN(CCF)c1ccc(/C=C/C(=O)c2ccc(N)cc2O)cc1 .
Solution: inactive

Exercise: Hello, I am checking results. What call was entered for CN1CCN(Cc2ccc(C(=O)Nc3cccc(Nc4ccc5cc(O)ccc5n4)c3)cc2C(F)(F)F)CC1 ?
Solution: active

Exercise: What did this assay record as the result for O=C(Nc1ccc(I)cc1F)c1cc(-c2ccc(F)cc2F)ccc1O ?
Solution: active

Exercise: Dear all, I need the recorded test outcome for CCOC(=O)C1=C(N)N(c2ccc(C)cc2)C2=C(C(=O)CC(C)(C)C2)C1c1ccccc1OC (centres undefined) , thank you.
Solution: inactive

Exercise: Hi, do you know how CCOC(=O)N/C(=C1/OCCN1C)[P+](c1ccccc1)(c1ccccc1)c1ccccc1 came out in this test?
Solution: inactive

Exercise: Hi, do you know how Cc1cc(=O)oc2cc(OCCCCOc3ccc(/C=C/C(=O)Nc4ccc(F)c(Cl)c4)cc3)ccc12 came out in this test?
Solution: inactive

Exercise: Which outcome did this test record for the molecule COc1cc(OC(F)(F)F)ccc1C(=O)Nc1sc2c(c1C#N)CCC(=O)C2 ?
Solution: inactive

Exercise: Please indicate how the test categorized NC(=Nc1ccc(OCCCCCCCCn2ccnn2)cc1)c1ccccc1 .
Solution: inactive

Exercise: Recorded call for O=C(O)CCCCCCCCCCN1C(=O)/C(=C/c2cnc(-c3ccc(Cl)cc3)s2)SC1=S ?
Solution: active

Exercise: Dear all, I need the recorded test outcome for O=c1c2ccccc2nc(COc2ccccc2)n1/N=C/c1ccc(F)cc1 , thank you.
Solution: inactive

Exercise: Which outcome did this test record for the molecule Cc1cc(C)nc(/N=C(\N)Nc2ccc(S(=O)(=O)Nc3nc(C)cc(C)n3)cc2)n1 ?
Solution: inactive

Exercise: Recorded test outcome, item CCOC(=O)CNC(=O)CN(Cc1ccccc1)C(=O)[C@@]1(C)CCC[C@]2(C)[C@H]3CC4C(C(C)C)=C[C@]3(CC[C@H]21)[C@@H]1C(=O)CCC(=O)[C@H]41
Solution: inactive

Exercise: Answer briefly: the call reported for Cc1ccn2c(C(=O)c3ccccc3)cc(-c3cc(-c4ccc(N(C)C)cc4)c(C#N)c(N)n3)c2c1 in this assay.
Solution: inactive

Exercise: Query: recorded result category for Cc1ccc(-c2cc(C(=O)N=Nc3c(O)[nH]c4ccc(Br)cc34)c3ccccc3n2)cc1 in this test
Solution: inactive

Exercise: I would be grateful if you could indicate the recorded call for COc1csc(/C=N/NC(=O)c2[nH]c3ccc(Br)cc3c2-c2ccccc2)c1 .
Solution: active

Exercise: State the result this test recorded for OCc1[nH]nc2cc(Nc3ncc4ccc(Br)c(OC5CCC(O)CC5)c4n3)ccc12 (centres undefined) .
Solution: active

Exercise: // return assay outcome for O=C(c1ccc(Cl)cc1)C1[C@H](c2ccc(Br)cc2)[C@@H](c2ccccc2)NC12C(=O)Nc1ccc(Cl)cc12 (some centres undefined)
Solution: active

Exercise: For O=C(CSc1nnc(-c2c[nH]c3ccccc23)n1-c1ccccc1)c1ccccc1 , which call appears in the assay record?
Solution: inactive

Exercise: What classification did O=C(CSc1nnc(-c2c[nH]c3ccccc23)n1-c1ccccc1)Nc1ccc(C(=O)/C=C/c2ccc(Br)cc2)cc1 end up with in this test?
Solution: inactive
